molecular target: SRRM2 (UniProt Q9UQ35); assay: Kd (EC50 corrected by depletion factor)
Sequence (Q9UQ35 whole entry): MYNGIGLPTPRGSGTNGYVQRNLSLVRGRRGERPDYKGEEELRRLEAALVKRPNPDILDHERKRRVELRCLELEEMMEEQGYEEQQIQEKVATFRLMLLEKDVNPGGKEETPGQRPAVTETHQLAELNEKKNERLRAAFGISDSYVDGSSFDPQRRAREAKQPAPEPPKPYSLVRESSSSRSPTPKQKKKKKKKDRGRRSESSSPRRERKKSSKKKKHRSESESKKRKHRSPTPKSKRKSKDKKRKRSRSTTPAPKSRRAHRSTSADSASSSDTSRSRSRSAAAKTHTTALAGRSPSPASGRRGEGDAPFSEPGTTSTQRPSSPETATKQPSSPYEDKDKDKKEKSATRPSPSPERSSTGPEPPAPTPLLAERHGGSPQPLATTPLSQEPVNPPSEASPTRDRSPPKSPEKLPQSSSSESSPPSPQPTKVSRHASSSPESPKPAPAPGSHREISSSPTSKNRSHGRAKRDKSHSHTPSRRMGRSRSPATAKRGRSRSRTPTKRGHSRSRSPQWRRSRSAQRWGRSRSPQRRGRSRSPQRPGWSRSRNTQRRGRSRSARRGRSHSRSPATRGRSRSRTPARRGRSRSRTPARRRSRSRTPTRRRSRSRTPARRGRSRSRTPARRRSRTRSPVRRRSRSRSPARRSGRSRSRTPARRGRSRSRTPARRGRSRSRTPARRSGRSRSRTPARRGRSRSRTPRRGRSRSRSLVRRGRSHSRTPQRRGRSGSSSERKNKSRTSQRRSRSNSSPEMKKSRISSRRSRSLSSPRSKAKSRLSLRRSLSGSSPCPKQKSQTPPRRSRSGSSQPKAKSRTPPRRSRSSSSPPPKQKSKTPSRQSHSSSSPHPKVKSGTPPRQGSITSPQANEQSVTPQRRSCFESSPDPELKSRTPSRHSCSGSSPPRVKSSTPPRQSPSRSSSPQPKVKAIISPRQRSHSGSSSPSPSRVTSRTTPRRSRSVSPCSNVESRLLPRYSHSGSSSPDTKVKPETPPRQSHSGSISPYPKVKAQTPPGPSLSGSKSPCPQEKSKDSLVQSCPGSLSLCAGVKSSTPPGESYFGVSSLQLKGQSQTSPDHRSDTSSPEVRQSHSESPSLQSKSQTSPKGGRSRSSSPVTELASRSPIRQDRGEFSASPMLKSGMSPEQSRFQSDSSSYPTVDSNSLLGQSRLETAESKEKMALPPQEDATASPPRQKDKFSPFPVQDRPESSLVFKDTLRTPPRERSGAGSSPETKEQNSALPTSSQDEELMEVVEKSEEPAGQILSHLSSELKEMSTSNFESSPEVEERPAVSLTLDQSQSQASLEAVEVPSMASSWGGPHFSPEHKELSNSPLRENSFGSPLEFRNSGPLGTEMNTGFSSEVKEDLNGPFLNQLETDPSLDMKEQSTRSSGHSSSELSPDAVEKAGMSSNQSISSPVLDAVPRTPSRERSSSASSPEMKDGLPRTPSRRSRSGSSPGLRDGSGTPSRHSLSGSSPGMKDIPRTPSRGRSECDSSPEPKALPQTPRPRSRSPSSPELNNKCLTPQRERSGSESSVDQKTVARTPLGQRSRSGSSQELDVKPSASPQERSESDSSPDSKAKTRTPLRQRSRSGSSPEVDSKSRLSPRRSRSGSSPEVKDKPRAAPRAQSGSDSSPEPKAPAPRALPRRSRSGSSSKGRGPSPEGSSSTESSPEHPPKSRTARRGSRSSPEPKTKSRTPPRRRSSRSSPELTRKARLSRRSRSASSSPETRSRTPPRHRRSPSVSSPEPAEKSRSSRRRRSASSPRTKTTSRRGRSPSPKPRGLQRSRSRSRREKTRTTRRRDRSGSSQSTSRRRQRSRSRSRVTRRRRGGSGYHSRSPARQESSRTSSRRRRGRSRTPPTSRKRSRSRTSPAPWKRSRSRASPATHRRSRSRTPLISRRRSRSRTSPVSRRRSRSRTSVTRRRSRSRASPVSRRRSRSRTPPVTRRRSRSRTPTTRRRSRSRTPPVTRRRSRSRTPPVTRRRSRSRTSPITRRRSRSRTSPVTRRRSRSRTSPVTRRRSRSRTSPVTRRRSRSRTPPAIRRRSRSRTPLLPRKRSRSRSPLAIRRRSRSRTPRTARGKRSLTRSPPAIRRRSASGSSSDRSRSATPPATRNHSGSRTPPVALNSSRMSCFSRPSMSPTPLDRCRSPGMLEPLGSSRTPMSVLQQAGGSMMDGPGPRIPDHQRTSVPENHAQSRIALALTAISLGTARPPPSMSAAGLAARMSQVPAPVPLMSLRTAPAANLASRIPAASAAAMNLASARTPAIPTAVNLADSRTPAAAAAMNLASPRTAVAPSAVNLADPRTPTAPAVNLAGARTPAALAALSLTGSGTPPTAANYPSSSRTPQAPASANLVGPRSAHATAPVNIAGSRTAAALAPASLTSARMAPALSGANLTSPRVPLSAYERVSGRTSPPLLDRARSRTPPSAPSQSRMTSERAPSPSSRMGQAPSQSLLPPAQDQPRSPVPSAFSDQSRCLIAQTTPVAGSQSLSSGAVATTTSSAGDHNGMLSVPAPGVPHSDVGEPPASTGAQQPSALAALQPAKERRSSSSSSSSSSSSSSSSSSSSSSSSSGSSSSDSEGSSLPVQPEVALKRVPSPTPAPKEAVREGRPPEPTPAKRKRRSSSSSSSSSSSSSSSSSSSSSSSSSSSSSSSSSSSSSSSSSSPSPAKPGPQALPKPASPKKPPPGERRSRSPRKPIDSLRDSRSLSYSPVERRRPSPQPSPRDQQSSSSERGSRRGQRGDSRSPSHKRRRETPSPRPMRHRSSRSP
readout type: Kd (nM)
Reply with just the number (in nM).

Prompt: Which Kd value is on record for AAUAAA ?
Response: 367

====

target: TUBB4B (UniProt P68371); assay: EC50 of free RNA motif oligo competing protein binding to immobilised probe
Sequence (P68371 whole entry): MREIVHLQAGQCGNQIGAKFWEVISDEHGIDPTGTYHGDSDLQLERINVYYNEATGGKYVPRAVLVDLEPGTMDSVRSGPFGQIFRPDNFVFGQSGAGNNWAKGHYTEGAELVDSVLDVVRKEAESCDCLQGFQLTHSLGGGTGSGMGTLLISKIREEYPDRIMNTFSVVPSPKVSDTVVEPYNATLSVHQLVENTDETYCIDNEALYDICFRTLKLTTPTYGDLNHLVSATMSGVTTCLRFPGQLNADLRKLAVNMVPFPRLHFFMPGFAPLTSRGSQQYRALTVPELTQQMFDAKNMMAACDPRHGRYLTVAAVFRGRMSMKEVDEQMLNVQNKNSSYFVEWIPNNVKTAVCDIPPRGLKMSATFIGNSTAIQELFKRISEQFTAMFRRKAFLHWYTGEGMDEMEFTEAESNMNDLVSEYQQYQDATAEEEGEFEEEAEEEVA
readout type: pEC50
Formally, pEC50 is defined as -log10 of the concentration c, with c in mol/L.

Prompt: Any idea what its pEC50 is? The sequence is AAUAAA
Response: 5.85

====

target: HNRNPU (UniProt Q00839); assay: Kd (EC50 corrected by depletion factor)
Sequence (Q00839 whole entry): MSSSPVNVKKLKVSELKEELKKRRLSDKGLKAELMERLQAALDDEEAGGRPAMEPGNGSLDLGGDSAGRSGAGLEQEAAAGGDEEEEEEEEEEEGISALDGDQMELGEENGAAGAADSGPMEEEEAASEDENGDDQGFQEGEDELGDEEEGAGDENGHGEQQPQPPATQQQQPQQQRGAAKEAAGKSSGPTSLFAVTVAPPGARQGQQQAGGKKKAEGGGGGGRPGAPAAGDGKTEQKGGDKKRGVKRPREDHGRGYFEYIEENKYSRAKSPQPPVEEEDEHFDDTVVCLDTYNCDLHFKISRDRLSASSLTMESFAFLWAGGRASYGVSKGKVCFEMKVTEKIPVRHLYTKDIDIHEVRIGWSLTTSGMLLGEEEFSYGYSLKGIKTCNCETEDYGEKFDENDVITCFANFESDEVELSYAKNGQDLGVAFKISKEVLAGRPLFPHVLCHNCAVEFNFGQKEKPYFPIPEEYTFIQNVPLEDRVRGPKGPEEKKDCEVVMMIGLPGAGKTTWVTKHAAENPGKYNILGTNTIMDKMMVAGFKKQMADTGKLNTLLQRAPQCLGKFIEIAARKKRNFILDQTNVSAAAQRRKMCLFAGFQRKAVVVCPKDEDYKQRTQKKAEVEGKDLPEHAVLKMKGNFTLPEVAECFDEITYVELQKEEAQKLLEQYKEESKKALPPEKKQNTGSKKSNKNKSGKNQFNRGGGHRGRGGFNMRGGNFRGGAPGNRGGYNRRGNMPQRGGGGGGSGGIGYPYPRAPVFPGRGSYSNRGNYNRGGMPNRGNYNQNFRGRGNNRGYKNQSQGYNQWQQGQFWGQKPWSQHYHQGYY
readout type: Kd (nM)
Field format: number, assumed nM, no unit text.

Prompt: Could you tell me which Kd is on file for CUGUCCU ?
Response: 90.1

====

Target: LSM8 (UniProt O95777)
Sequence: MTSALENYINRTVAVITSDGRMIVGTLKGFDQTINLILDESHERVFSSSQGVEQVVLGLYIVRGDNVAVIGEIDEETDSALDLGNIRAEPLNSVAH
Assay: EC50 of free RNA motif oligo competing protein binding to immobilised probe
readout type: pEC50
Friendly reminder that pEC50 comes from taking -log10 of the concentration in mol/L.

Prompt: Give the measured pEC50 of UAUUUAU .
Response: 5.02

====

Biological target: TIAL1 (UniProt Q01085)
Sequence: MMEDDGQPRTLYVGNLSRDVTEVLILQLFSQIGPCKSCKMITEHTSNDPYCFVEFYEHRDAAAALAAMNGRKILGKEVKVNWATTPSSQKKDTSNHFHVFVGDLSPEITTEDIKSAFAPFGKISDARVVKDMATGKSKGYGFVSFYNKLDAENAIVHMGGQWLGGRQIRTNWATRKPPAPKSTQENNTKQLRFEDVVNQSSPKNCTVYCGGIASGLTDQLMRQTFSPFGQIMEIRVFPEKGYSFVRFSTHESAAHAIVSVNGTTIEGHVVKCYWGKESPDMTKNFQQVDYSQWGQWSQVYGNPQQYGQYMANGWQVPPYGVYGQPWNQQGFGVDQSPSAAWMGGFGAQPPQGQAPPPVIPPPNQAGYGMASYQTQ
Experiment: EC50 of free RNA motif oligo competing protein binding to immobilised probe
readout type: pEC50
Units for pEC50: none; it is -log10 of a concentration expressed in mol/L.

Prompt: Please give the measured pEC50 for this sequence: AAUAAA
Response: 6.26

====

target: LSM3 (UniProt P62310); test: EC50 of free RNA motif oligo competing protein binding to immobilised probe
Sequence (P62310 whole entry): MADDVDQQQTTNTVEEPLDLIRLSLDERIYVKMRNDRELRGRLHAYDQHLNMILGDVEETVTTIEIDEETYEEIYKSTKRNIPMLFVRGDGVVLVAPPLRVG
Reported EC50 values for the following sequences.

Prompt: What measured EC50 goes with AAUAAA ?
Response: 358 nM

Please examine the following record next.
Prompt: # lookup: EC50 of UAUUUAU
Response: 694 nM

====

Biological target: PABPN1 (UniProt Q86U42)
Sequence: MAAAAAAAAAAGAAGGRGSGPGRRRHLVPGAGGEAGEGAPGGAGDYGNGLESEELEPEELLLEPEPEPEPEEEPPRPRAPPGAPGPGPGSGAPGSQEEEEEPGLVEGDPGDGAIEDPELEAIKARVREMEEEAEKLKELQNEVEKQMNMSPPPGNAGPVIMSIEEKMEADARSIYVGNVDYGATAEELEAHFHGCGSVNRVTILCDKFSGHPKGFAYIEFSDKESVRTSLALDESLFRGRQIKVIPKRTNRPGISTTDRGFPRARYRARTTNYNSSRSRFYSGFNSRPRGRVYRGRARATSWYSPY
Experiment: EC50 of free RNA motif oligo competing protein binding to immobilised probe
readout type: pEC50
Expect pEC50 as a plain number equal to -log10 of the molar concentration.

Prompt: Find the recorded pEC50 belonging to AAUAAA and report it.
Response: 5.45
